System: Escherichia coli TOP10
Test: shrunken log2 fold change of peptide-encoding DNA abundance (4.5 h post-induction vs induction); higher = less antimicrobial activity (less host growth inhibition)
Details: time post-induction: 4.5 h; library: site-saturation at positions 5, 18, 19, 20
Quick list: shrunken log2 fold change per entry.
// print number alone

RRIRCRPPRLPRPRPRPCWKPRP : -0.174
RRIRQRPPRLPRPRPRPDWKPRP : 0.0112
RRIRDRPPRLPRPRPRPREMPRP : 0.00815
RRIRARPPRLPRPRPRPMANPRP : 0.285
RRIRCRPPRLPRPRPRPETSPRP : 0.0533
RRIRARPPRLPRPRPRPFYMPRP : -0.45
RRIRGRPPRLPRPRPRPVPYPRP : 0.11
RRIRARPPRLPRPRPRPQPLPRP : 0.209
RRIRWRPPRLPRPRPRPMMGPRP : 0.0383
RRIRHRPPRLPRPRPRPMDCPRP : -0.0499

State, in one line, measured shrunken log2 fold change of RRIRWRPPRLPRPRPRPIERPRP
0.0857

State, in one line, measured shrunken log2 fold change of RRIRTRPPRLPRPRPRPCPMPRP
0.00574

State, in one line, measured shrunken log2 fold change of RRIRCRPPRLPRPRPRPVWHPRP
0.127

State, in one line, measured shrunken log2 fold change of RRIRSRPPRLPRPRPRPSERPRP
0.245

State, in one line, measured shrunken log2 fold change of RRIRWRPPRLPRPRPRPFRRPRP
-0.134

----------
Quick list: shrunken log2 fold change per entry.
Tested on: Escherichia coli TOP10
Assay: shrunken log2 fold change of peptide-encoding DNA abundance (4.5 h post-induction vs induction); higher = less antimicrobial activity (less host growth inhibition)
Conditions: time post-induction: 4.5 h; library: site-saturation at positions 5, 18, 19, 20
// print number alone

Use the examples below as a reference point.
RRIRARPPRLPRPRPRPNTCPRP : 0.136
RRIRNRPPRLPRPRPRPWNIPRP : -0.0117
RRIRSRPPRLPRPRPRPPGFPRP : 0.467

State, in one line, measured shrunken log2 fold change of RRIRCRPPRLPRPRPRPDSNPRP
-0.488

State, in one line, measured shrunken log2 fold change of RRIRKRPPRLPRPRPRPFKAPRP
-0.111

State, in one line, measured shrunken log2 fold change of RRIRYRPPRLPRPRPRPLGVPRP
-0.0163

----------
Tested on: Escherichia coli TOP10;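 further: peptides expressed intracellularly from a pBAD plasmid library in pooled LB shake-flask culture, induced with 0.3% L-arabinose, DNA abundance read by NGS, three biological replicates, DESeq2 with apeglm shrinkage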
Experiment: shrunken log2 fold change of peptide-encoding DNA abundance (4.5 h post-induction vs induction); higher = less antimicrobial activity (less host growth inhibition)
Conditions: time post-induction: 4.5 h; library: site-saturation at positions 5, 18, 19, 20
Property Label: shrunken log2 fold change
// print number alone

Use the examples below as a reference point.
RRIRWRPPRLPRPRPRPCKVPRP : -0.0816
RRIRDRPPRLPRPRPRPLEIPRP : 0.287

State, in one line, measured shrunken log2 fold change of RRIRERPPRLPRPRPRPLMNPRP
-0.336

State, in one line, measured shrunken log2 fold change of RRIRRRPPRLPRPRPRPETCPRP
-0.00655

State, in one line, measured shrunken log2 fold change of RRIRKRPPRLPRPRPRPSNDPRP
0.257

State, in one line, measured shrunken log2 fold change of RRIRLRPPRLPRPRPRPHMWPRP
-0.325

State, in one line, measured shrunken log2 fold change of RRIRKRPPRLPRPRPRPTQKPRP
0.0634

State, in one line, measured shrunken log2 fold change of RRIRGRPPRLPRPRPRPNRRPRP
0.332

Recorded values, source the supplement of paper PMC9112550.
